- test protocol: blood-stage malaria parasite viability loss – strain 3D7, DAPI fluorescence, 100 nL, primary screen (AID 1184);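 note: parasites grown inside human red blood cells in medium with human serum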
- applied conditions: P. falciparum 3D7 growth, 3 d, higher = more signal
quantity name: z-score
Give bare numbers.

Known z-score results, listed for orientation:
Cc1ccc([C@H]2C(C(=O)O)=CCN2S(=O)(=O)c2ccc(C)cc2)cc1 ... 0.546
NCCCCCNC(=O)[C@H]1C[C@H]2C(=O)N3CCC[C@H]3C(=O)N2[C@H]1c1ccc(O)cc1 ... -0.0006
COCCOC(=O)N1C(=O)[C@@]2(c3cc(C#CC4=CCCCC4)ccc31)[C@H](c1ccc(OCCO)cc1)N1[C@H](c3ccccc3)[C@H](c3ccccc3)OC(=O)[C@H]1[C@@H]2C(=O)N1CCc2cc(OC)c(OC)cc2C1 ... -2.06

Give measured z-score for every item shown.
1. COc1cc(CO)cc(I)c1O[C@H]1C=C(C(=O)NCCO)C[C@@H](N(C(=O)c2cc3ccccc3oc2=O)C2CCCCCC2)[C@@H]1O
2. COc1cc(OC)c(C(O)C2C=CC3C(=O)NC(=O)C3N2Nc2ccccn2)cc1Br (stereo not drawn)
3. CC[C@@H]1C=C(C(=O)O)[C@H](c2ccc(C)cc2)N1S(=O)(=O)c1ccc(C)cc1
4. O=C1[C@H]2C=C(I)[C@H](C[C@@H]2OCCCCO)[C@@]12CO2
5. CN1CCC(CCCO)=CC1c1cccs1 (stereo not drawn)

Data returned:
[-1.8, 0.776, 1.14, 1.1, 0.896]

---

- test protocol: optical density shifts of acrAB sulA E. coli – strain DRC41, OD650, 48 h, E. coli filamentation inducer project, primary screen (AID 1152);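 note: E. coli MC1000 strain DRC41 lacking acrAB efflux pump and sulA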
- applied conditions: higher = more signal, called active from +8 up or from −8 down
Cut-off -0.2 on z-score, inclusive. At or above means Satisfied; below means Not satisfied.

COCCCNC(=O)[C@@]1(Sc2ccc(C)cc2)CC(=O)N(Cc2ccccc2Cl)[C@@H]1c1ccc(CO)cc1 ... Satisfied
CN1C(=O)C2C=CC(C(O)c3c(F)cccc3Cl)N(NC(=O)OC(C)(C)C)C2C1=O (stereo unspecified) ... Not satisfied
O=C1NC(=O)C2C1C=CC(C(O)C=Cc1ccc([N+](=O)[O-])cc1)N2Nc1ccc(Cl)cc1Cl (stereo unspecified) ... Not satisfied
COc1ccc([C@H]2OC[C@@H]3CCC(=O)N32)cc1 ... Satisfied
[N-]=[N+]=NCc1ccccc1[C@@H]1OC(c2ccc(OCCCO)cc2)=N[C@]1(CCS(=O)(=O)c1ccccc1)C(N)=O ... Satisfied
C[C@H]1C2[C@H](Cc3ccccc3)NC(=O)[C@]23C(=O)NCC(=O)N2CCC[C@H]2C(=O)NC/C=C/CCC/C=C/C3[C@@H]2O[C@]12C (stereo partly specified) ... Satisfied
Cc1ccc(S[C@]2(C(=O)O)CC(=O)N(C(C)C)[C@@H]2c2ccc(CO)cc2)cc1 ... Satisfied
CC(CO)N1C(=O)[C@@H]2C3C(=O)OCCC/C=C\[C@H]3OC23C=CCN(CCN2CCOCC2)C(=O)[C@@H]13 (stereo partly specified) ... Satisfied
C=C(CCCC)C(=O)CC[C@H](OC(=O)c1cccnc1)c1ccc(OCCO)cc1 ... Not satisfied
O=C1C2C=CC(C(O)c3ccc(F)cc3)N(Nc3ccc([N+](=O)[O-])cc3)C2C(=O)N1c1ccccc1 (stereo unspecified) ... Not satisfied

Data request: Is z-score at least -0.2? Consider O[C@@H](Cc1ccccc1)[C@@H](/C=C/C1CC1)NCc1cccc(Cl)c1
Data returned: Not satisfied

Data request: Is z-score at least -0.2? Consider CCOC(=O)C[C@H]1[C@H](OC(=O)c2ccc(C(=O)c3ccccc3)cc2)[C@@H](NC(=O)c2ccccc2)c2cc(OCCCO)ccc2N1C(=O)c1ccccc1
Data returned: Not satisfied
